A collection of compounds and their measured pIC50
- test.system: HSD17B13 (Homo sapiens (Human))
- method.description: HSD17B13 enzymatic inhibition assay (150 nM or 50 nM HSD17B13)
- Format: biochemical
- assay.context: 50 nM HSD17B13; read-out: Inhibition of 50 nM of HSD17B13 IC50
API: returns pIC50 as number; meaning -log10 of concentration in mol/L.

* Cc1ccc2c(c1)Oc1cc(C)ccc1C2NC(=O)c1cc(CCc2ccccc2)c(C(F)(F)F)[nH]c1=O [Compound 520] | 7.70
* O=C(NC(c1ccccc1)c1ccc2c(c1)NCCC2)c1ccc(C(F)(F)F)[nH]c1=O (stereo not shown) [Compound 110] | 6.08

# next compound below
Test system HSD17B13 (Homo sapiens (Human)); read-out pIC50; what value for O=C(NC1CCCc2c(CCO)cccc21)c1ccc(C(F)(F)F)[nH]c1=O (stereo not shown) [Compound 346] ?
5.15

* * *

- test.system: HSD17B13 (Homo sapiens (Human), UniProt Q7Z5P4)
- Sequence (Q7Z5P4 other isoform, or with tags, fused parts or gaps): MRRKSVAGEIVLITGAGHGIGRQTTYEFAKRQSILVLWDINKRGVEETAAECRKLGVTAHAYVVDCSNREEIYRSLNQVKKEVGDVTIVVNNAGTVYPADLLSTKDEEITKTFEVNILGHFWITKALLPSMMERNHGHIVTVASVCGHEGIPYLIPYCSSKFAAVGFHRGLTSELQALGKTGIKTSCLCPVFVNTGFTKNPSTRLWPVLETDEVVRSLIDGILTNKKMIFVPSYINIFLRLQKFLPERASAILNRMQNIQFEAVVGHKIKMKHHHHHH
- method.description: HSD17B13 enzymatic inhibition assay (150 nM or 50 nM HSD17B13)
- Assay type: biochemical
- assay.context: 50 nM HSD17B13; read-out: Inhibition of 50 nM of HSD17B13 IC50
Mark yes (1) only for IC50 values smaller than 1 µM; exact matches and larger values are no (0).

Study these solved cases before continuing.
• C=CCc1cccc(C(NC(=O)c2ccc(C(F)(F)F)[nH]c2=O)c2ccccc2)c1 (stereo not shown) = yes (1)
• C=CCc1cc(CC=C)cc(NC(=O)c2ccc(C(F)(F)F)[nH]c2=O)c1 = no (0)
• O=C(NC(c1ccccc1)c1cccc(CC(F)(F)F)c1)c1ccc(C(F)(F)F)[nH]c1=O (stereo not shown) = no (0)
• CSc1cc(C)ccc1C(NC(=O)c1ccc(C(F)(F)F)[nH]c1=O)c1ccccc1 (stereo not shown) = no (0)
• O=C(NC1c2cc(OC(F)(F)F)ccc2-c2ccc(OC(F)(F)F)cc21)c1ccc(C(F)(F)F)[nH]c1=O = yes (1)
• CC(F)(F)c1ccc(C(=O)NC2c3ccccc3Oc3ccccc32)c(=O)[nH]1 = no (0)

Okay, next one:
Take the molecule `Cc1cc(C(F)(F)F)[nH]c(=O)c1C(=O)NC1c2ccc(Cl)cc2Oc2cc(Cl)ccc21` and say whether its IC50 is less than 1 µM.
no (0)

* * *

This listing pairs compounds with measured pIC50.
- test.system: HSD17B13 (Homo sapiens (Human))
- method.description: HSD17B13 enzymatic inhibition assay (150 nM or 50 nM HSD17B13)
- Type: biochemical
- assay.context: 50 nM HSD17B13; read-out: Inhibition of 50 nM of HSD17B13 IC50
API: returns pIC50 as number; meaning -log10 of concentration in mol/L.

Solved cases (10 shown):
• O=C(NC(Cc1ccccc1)c1ccc(Cl)cc1)c1ccc(C(F)(F)F)[nH]c1=O (centres unmarked) [Compound 19A] = 6.00
• COc1ccc(C(C)(NC(=O)c2ccc(C(F)(F)F)[nH]c2=O)c2ccc(OC)cc2)cc1 [Compound 20A] = 5.81
• Cc1cc(C(F)(F)F)[nH]c(=O)c1C(=O)NC1c2ccccc2Oc2ccccc21 [Compound 195] = 5.48
• Cc1ccc2c(c1)C(NC(=O)c1ccc(C(F)F)[nH]c1=O)c1ccccc1S2 (centres unmarked) [Compound 281] = 5.73
• O=C(NC1c2ccccc2S(=O)(=O)c2ccccc21)c1ccc(C(F)(F)F)[nH]c1=O [Compound 11A] = 5.92
• CCCN1CCC(NC(=O)c2ccc(C(F)(F)F)[nH]c2=O)c2ccc(C)cc21 (centres unmarked) [Compound 337] = 5.38
• COCCOc1ccc2c(c1)Oc1ccccc1C2NC(=O)c1ccc(C(F)(F)F)[nH]c1=O (centres unmarked) [Compound 440] = 6.15
• Cc1ccc2c(c1)Oc1cccc(Cl)c1C2NC(=O)c1ccc(C(F)(F)F)[nH]c1=O (centres unmarked) [Compound 190] = 7.05
• O=C(NC(c1ccccc1)c1ccc(C2COC2)cc1)c1ccc(C(F)(F)F)[nH]c1=O (centres unmarked) [Compound 99] = 5.57
• CCC[C@H]1C[C@@H](NC(=O)c2ccc(C(F)(F)F)[nH]c2=O)c2cc(C)ccc2N1 [Compound 362] = 7.10

Please report the recorded pIC50 for Cc1ccc2c(c1)Sc1cc(C)ccc1C2NC(=O)c1cc(N2CCNCC2)c(C(F)(F)F)[nH]c1=O [Compound 432] .
6.48

Name the reported pIC50 value associated with the compound C=Cc1ccc(C(NC(=O)c2ccc(C(F)(F)F)[nH]c2=O)c2ccccc2)cc1 (centres unmarked) [Compound 3A]
5.89

Need pIC50 of CCCc1cc(CCC)cc(NC(=O)c2ccc(C(F)(F)F)[nH]c2=O)c1 [Compound 271] , thanks.
5.68

Can you look up the measured pIC50 of Cc1ccc2c(c1)Sc1cc(C)ccc1C2NC(=O)c1ccc(C(F)(F)F)[nH]c1=O [Compound 252] for me?
8.00

For the compound shown here, CCC[C@@H]1Oc2ccc(C)cc2[C@@H]1NC(=O)c1ccc(C(F)(F)F)[nH]c1=O [Compound 354] , give the reported pIC50.
6.29

# lookup: pIC50 of O=C(NC1c2ccc(OC(F)(F)F)cc2-c2cc(OC(F)(F)F)ccc21)c1ccc(C(F)(F)F)[nH]c1=O [Compound 8A]
5.20
